// provenance: paper PMC12040969

Tested on: tubulin
Test: Tubulin polymerization inhibition assay (Cytoskeleton kit);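 further: Cell-free tubulin polymerization read by fluorescent reporter enhancement over a 30 min reaction, with the compound-free kit control taken as 100% activity and inhibition relative to it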
Conditions: conc 100 (unit not given), 30 min, codes 522-537 run
Label rule, in plain words: Tub. enzyme inhibition assay %inhibition of 80% and up is label 1, under 80% is label 0.

Cc1nc(SCC(=O)Nc2nc(-c3ccc(Cl)cc3)cs2)sc1C(=O)/C=C/c1ccc(Cl)cc1 [Compound 10g] :: label 0
Cc1ccc(-c2csc(NC(=O)CSc3nc(C)c(C(=O)/C=C/c4ccccc4)s3)n2)cc1 [Compound 10k] :: label 0
Cc1ccc(/C=C/C(=O)c2sc(SCC(=O)Nc3nccs3)nc2C)cc1 [Compound 13d] :: label 1
Cc1ccc(/C=C/C(=O)c2sc(SCC(=O)Nc3nc(-c4ccc(C)cc4)cs3)nc2C)cc1 [Compound 10n] :: label 0
COc1ccc(/C=C/C(=O)c2sc(SCC(=O)Nc3nc(-c4ccc(Cl)cc4)cs3)nc2C)cc1 [Compound 10j] :: label 0
Cc1ccc(/C=C/C(=O)c2sc(SCC(=O)Nc3nc(-c4ccc(Cl)cc4)cs3)nc2C)cc1 [Compound 10i] :: label 0
COc1ccc(/C=C/C(=O)c2sc(SCC(=O)Nc3nc(-c4ccccc4)cs3)nc2C)cc1 [Compound 10e] :: label 1
Cc1nc(SCC(=O)Nc2nc(-c3ccc(Cl)cc3)cs2)sc1C(=O)/C=C/c1ccccc1 [Compound 10f] :: label 1
